Biological target: HaloTag-ING2 PHD (mouse Ing2 200-280)
Assay: peptide microarray binding signal (635 nm), min-max normalized on array (fraction of array maximum); higher = stronger binding
Conditions: peptide region: Unmod H1 variant; binder concentration: 10 nM
Each item that follows carries a reported peptide microarray binding signal.
Write no unit; give the number alone.

Example cases with answers are listed next.
RLVTTGVLKQTKG [Unmod H1 variant R L V T T G V L K Q T K G] ... 0.0205
GAAKRKASGPPVS [Unmod H1 variant G A A K R K A S G P P V S] ... 0.00245
VKKKARKSAGAAK [Unmod H1 variant V K K K A R K S A G A A K] ... 0.00203
PKKSVAFKKTKKE [Unmod H1 variant P K K S V A F K K T K K E] ... 0.00203

IN: Return value of peptide microarray binding signal for input TKPGASKVATKTK [Unmod H1 variant T K P G A S K V A T K T K] , no commentary.
OUT: 0.00215
